Collected melting point values appear next to each entry.
observationType: melting point

                                   compound  observationtype  measuredvalue
0         CC(C)c1nccn1-c1nc(Cl)nc2nc[nH]c12    melting point         268 °C
1  O=C(O)c1cccc(-n2cnc3cc(-c4ccoc4)ccc32)c1    melting point  272 to 274 °C
2  Cc1ccc(S(=O)(=O)Nc2ccccc2CCC(=O)c2cnc3sc(C)c(C)n23)cc1    melting point  168 to 169 °C
3  COC(=O)Nc1nc2cc(-c3noc4ccccc34)ccc2[nH]1    melting point       > 300 °C
4            CCCN(CCC)CCc1ccc(O)c2nc[nH]c12    melting point  135 to 139 °C
5  CC(Oc1ccc(-c2ccc(F)c(C#N)c2)cc1)C(O)CCc1cccnc1 (centres undefined)    melting point  108 to 109 °C
6  O=C1C(CCO)Oc2ccccc2N1Cc1cccc2ccccc12 (centres undefined)    melting point  100 to 104 °C
7           CC(C)(C)C(=O)Nc1cnc(C(=O)CO)cn1    melting point  169 to 172 °C
8                  CSc1nc(SCc2ccccc2)n[nH]1    melting point    80 to 82 °C
